Smi	melting point
Cc1cccc(NC(=O)CSc2nc3ccccc3cc2C=NNC(=O)c2ccccc2)c1C	241 to 243 °C
O=C(CSc1nc2ccccc2cc1C=NNC(=O)c1ccccc1)Nc1ccc(Br)cc1	254 to 257 °C
O=C(CSc1nc2ccccc2cc1C=NNC(=O)c1ccccc1)Nc1ccccc1	245 to 247 °C
O=C(CSc1nc2ccccc2cc1C=NNC(=O)c1ccccc1)Nc1ccccc1F	268 to 270 °C
O=C(CSc1nc2ccccc2cc1C=NNC(=O)c1ccccc1)Nc1ccc2ccccc2c1	263 to 265 °C
COc1ccc(NC(=O)CSc2nc3ccccc3cc2C=NNC(=O)c2ccccc2)cc1	241 to 243 °C
O=C(CSc1nc2ccccc2cc1C=NNC(=O)c1ccccc1)NCc1ccc(F)cc1	269 to 271 °C
Cc1ccccc1NC(=O)CSc1nc2ccccc2cc1C=NNC(=O)c1ccccc1	260 to 263 °C
O=C(CSc1nc2ccccc2cc1C=NNC(=O)c1ccccc1)Nc1ccc(Cl)cc1	262 to 264 °C
Cc1ccc(NC(=O)CSc2nc3ccccc3cc2C=NNC(=O)c2ccccc2)cc1	254 to 256 °C
O=C(CSc1nc2ccccc2cc1C=NNC(=O)c1ccccc1)NCc1ccccc1	241 to 243 °C
O=C(CSc1nc2ccccc2cc1C=NNC(=O)c1ccccc1)Nc1ccc(F)cc1	271 to 273 °C
O=C(CSc1nc2ccccc2cc1C=NNC(=O)c1ccccc1)Nc1ccc([N+](=O)[O-])cc1	241 to 243 °C
CCc1ccc(NC(=O)CSc2nc3ccccc3cc2C=NNC(=O)c2ccccc2)cc1	255 to 257 °C
O=C(CSc1nc2ccccc2cc1C=NNC(=O)c1ccccc1)Nc1cccc(Cl)c1	255 to 257 °C
